Exercise: state measured Kd for each of the binders provided.
Target: cyPD1 (cynomolgus monkey)
Assay: biosensor kinetics (BLI type); antibody captured on anti-human Fc biosensor, PD-1 in solution
Numbers only, in nM.

1) TA102 (antibody, V domains shown, Fc SEQ 587, CL SEQ 416) VH: DVQLVESGGGVVRPGESLRLSCAASGFTFRNYDMTWVRQAPGEGLEWVATISGTDDTTYYADSVKGRATISRDNSNNTLYLRLFSLRAEDTAIYYCAREASNSFIDYWGLGTLVTVSS VL: QSVLTQPPSASGTPGQRVTISCSGSSSNIGRRYVYWYQQLPGTAPKLLIYRNFERPSGVPDRFSGSKSGTSASLAISGLQSEDEADYYCASWDESLNGWVFGGGTKLTVL : 7.2

Now consider a different binder.
Kd in this record for TA104 (antibody, V domains shown, Fc SEQ 587, CL SEQ 416) VH: DVQLVESGGGVARPGESLRLSCAASGFTFRDYDMGWVRQAPGEGLEWVSSISVSGTTYYADSVKGRFTISRDNSENTLYLQMNSLTAEDTAVYYCGREDTLFHYWGLGTLVTVSS VL: QSVLTQPPSASGTPGQRVTISCSGSTSNIGTRYVYWYQQLPGTAPKLLIYKNLQRPSGVPDRFSGSKSGTSASLAISGLQSEDEADYYCAAWDERLNGWVFGGGTKLTVL : 56.8
